Assay: chemical genetic growth profiling, strain panel (AID 1159580);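 note: tested at 20 µM; growth read once vehicle control cultures reached saturation at 30 °C; lower values mean less growth of the strain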
Conditions: S. cerevisiae deletion strains, growth OD, locus YPR141C, strain kar3, active compounds read low
Out of some 5,500 compounds screened, about 2,000 (36%) were called active. Inconclusive results (about 18%) are left out. The list shows a part of the results.
Lab note: compare normalized growth with 1, writing Satisfied if less and Not satisfied if equal or more.

compound: CC1=C2[C@](C)(C=CC1=O)C[C@H](O)[C@H]1[C@H](C)C(=O)O[C@]21C
label: Not satisfied
//
compound: CC(=O)Oc1ccc2c(c1)CCC1C2CC[C@@]2(C)C1CC[C@@H]2OC(C)=O (stereo partly specified)
label: Satisfied
//
compound: COc1cc(O)c(C(=O)O)c(O)c1
label: Satisfied
//
compound: CC1=C2CCC3C(CC[C@]4(C)C(=O)CCC34)[C@@]2(C)CCC1=O (stereo partly specified)
label: Satisfied

# strict comparison: is reported normalized growth < 1? input = C[C@]12CCC3C(CC[C@H]4C[C@@H](O)CC[C@]34C)C1CCC2=O (stereo partly specified)
Not satisfied

I'd appreciate it if you could check whether CC(C)=CCc1c(O)cc2occ(-c3ccc4c(c3)OCO4)c(=O)c2c1O has normalized growth smaller than 1.
Not satisfied

Does the reported normalized growth of the following compound sit strictly below 1? CC(C)=CCC1=C(O)c2ccccc2C(=O)C1=O
Satisfied

Data credit: PubChem BioAssay AID1159580
